tested.target: hNK2 receptor (Homo sapiens, UniProt P21452)
Construct: host or cells: CHO cells
Sequence (P21452 whole entry): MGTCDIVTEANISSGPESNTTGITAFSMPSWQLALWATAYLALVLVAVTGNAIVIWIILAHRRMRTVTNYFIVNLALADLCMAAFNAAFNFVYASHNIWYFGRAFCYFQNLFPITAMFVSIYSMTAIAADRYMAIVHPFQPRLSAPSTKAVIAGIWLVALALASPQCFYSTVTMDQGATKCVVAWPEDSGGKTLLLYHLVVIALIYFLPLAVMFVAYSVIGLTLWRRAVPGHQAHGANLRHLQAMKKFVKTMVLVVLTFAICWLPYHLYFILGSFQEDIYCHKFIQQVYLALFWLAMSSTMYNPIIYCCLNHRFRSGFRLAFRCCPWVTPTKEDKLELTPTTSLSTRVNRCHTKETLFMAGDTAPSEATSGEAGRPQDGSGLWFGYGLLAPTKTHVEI
test.method.notes: Radioligand receptor binding inhibitory activity using membrane fraction of hNK2 receptor-expressing CHO cell ([125I]-NKA)
experimental.setup: test compound 10^−7 M; read-out: hNK2 receptor binding inhibitory activity (inhibitory rate (%))
Counter-ions that a name gives are not always drawn.
observable: inhibition at 0.1 µM (%)
# value in %; strip the unit string

# annotated cases, reported inhibition at 0.1 µM shown
Summary for this compound, Cc1ccn(-c2ccc(C(=O)N[C@@H]3CCC(F)(F)C[C@@H]3C(=O)N3CCc4c(-c5ccccc5)nc5ccc(F)cc5c43)cc2)n1 [Example 9] : inhibition at 0.1 µM is 99.9

Summary for this compound, Cc1ccn(-c2ccc(C(=O)N[C@@H]3CCC(F)(F)C[C@@H]3C(=O)N3CCc4c(-c5ncc[nH]5)nc5ccccc5c43)cc2)n1.Cl [Example 12, hydrochloride] : inhibition at 0.1 µM is 101

Continuing:
Summary for this compound, Cc1ccn(-c2ccc(C(=O)N[C@@H]3CCC(F)(F)C[C@@H]3C(=O)N3CCc4c(-c5nccn5COC(=O)C(C)(C)C)nc5ccccc5c43)cc2)n1 [Example 4] : inhibition at 0.1 µM is 31.6

Summary for this compound, Cc1ccn(-c2ccc(C(=O)N[C@@H]3CCC(F)(F)C[C@@H]3C(=O)N3CCc4c(-c5ncc[nH]5)nc5ccc(F)cc5c43)cc2)n1 [Example 6, hydrochloride] : inhibition at 0.1 µM is 99.4

Summary for this compound, Cc1ccn(-c2ccc(C(=O)N[C@@H]3CCC(F)(F)C[C@@H]3C(=O)N3CCc4c(-c5ccsc5)nc5ccccc5c43)cc2)n1 [Example 7] : inhibition at 0.1 µM is 100

###

tested.target: hNK2 receptor (Homo sapiens)
Construct: host or cells: CHO cells
test.method.notes: Antagonistic activity determined by intracellular calcium concentration using neurokinin A and hNK2 receptor-expressing CHO cell (FLIPR)
Type: cell-based
experimental.setup: CHO, test compound 10^−5 M; neurokinin A stimulation; read-out: Antagonistic activity (inhibitory rate (%))
// inhibition at 10 µM lookup, one value per entry
# value in %; strip the unit string

Summary for this compound, Cc1ccn(-c2ccc(C(=O)N[C@@H]3CCC(F)(F)C[C@@H]3C(=O)N3CCc4c(-c5ccsc5)nc5ccccc5c43)cc2)n1 : inhibition at 10 µM is 83.7

Continuing:
Summary for this compound, Cc1ccn(-c2ccc(C(=O)N[C@@H]3CCC(F)(F)C[C@@H]3C(=O)N3CCc4c(-c5nccn5COC(=O)C(C)(C)C)nc5ccccc5c43)cc2)n1 : inhibition at 10 µM is 91

Summary for this compound, Cc1ccn(-c2ccc(C(=O)N[C@@H]3CCC(F)(F)C[C@@H]3C(=O)N3CCc4c(-c5ncc[nH]5)nc5ccccc5c43)cc2)n1 : inhibition at 10 µM is 88.3

Summary for this compound, Cc1ccn(-c2ccc(C(=O)N[C@@H]3CCC(F)(F)C[C@@H]3C(=O)N3CCc4c(-c5ccccc5)nc5ccc(F)cc5c43)cc2)n1 : inhibition at 10 µM is 84.1

Summary for this compound, Cc1ccn(-c2ccc(C(=O)N[C@@H]3CCC(F)(F)C[C@@H]3C(=O)N3CCc4c(-c5ncc[nH]5)nc5ccc(F)cc5c43)cc2)n1 : inhibition at 10 µM is 87.1

###

tested.target: hNK2 receptor (Homo sapiens)
Construct: host or cells: CHO cells
test.method.notes: Radioligand receptor binding inhibitory activity using membrane fraction of hNK2 receptor-expressing CHO cell ([125I]-NKA)
experimental.setup: test compound 10^−6 M
observable: hNK2 receptor binding inhibitory activity (inhibitory rate (%))
# value in %; strip the unit string

Summary for this compound, Br.Cc1ccn(-c2ccc(C(=O)N[C@@H]3CCC(F)(F)C[C@@H]3C(=O)N3CCc4c(-c5ncc[nH]5)nc5ccccc5c43)cc2)n1 : hNK2 receptor binding inhibitory activity (inhibitory rate (%)) is 100.7

Summary for this compound, Cc1ccn(-c2ccc(C(=O)N[C@@H]3CCC(F)(F)C[C@@H]3C(=O)N3CCc4c(-c5ccsc5)nc5ccccc5c43)cc2)n1.Cl : hNK2 receptor binding inhibitory activity (inhibitory rate (%)) is 100.7

Summary for this compound, Cc1ccn(-c2ccc(C(=O)N[C@@H]3CCC(F)(F)C[C@@H]3C(=O)N3CCc4c(-c5ncc[nH]5)nc5ccccc5c43)cc2)n1 : hNK2 receptor binding inhibitory activity (inhibitory rate (%)) is 101.1

Summary for this compound, Cc1ccn(-c2ccc(C(=O)N[C@@H]3CCC(F)(F)C[C@@H]3C(=O)N3CCc4c(-c5ncc[nH]5)nc5ccc(F)cc5c43)cc2)n1 : hNK2 receptor binding inhibitory activity (inhibitory rate (%)) is 100.8

Continuing:
Summary for this compound, Cc1ccn(-c2ccc(C(=O)N[C@@H]3CCC(F)(F)C[C@@H]3C(=O)N3CCc4c(-c5ccccc5)nc5ccc(F)cc5c43)cc2)n1.Cl : hNK2 receptor binding inhibitory activity (inhibitory rate (%)) is 99.9

###

tested.target: hNK2 receptor (Homo sapiens)
Construct: host or cells: CHO cells
test.method.notes: Radioligand receptor binding inhibitory activity using membrane fraction of hNK2 receptor-expressing CHO cell ([125I]-NKA)
experimental.setup: test compound 10^−6 M; read-out: hNK2 receptor binding inhibitory activity (inhibitory rate (%))
Where a name gives a salt, the structure may show the parent alone.
observable: inhibition at 1 µM (%)
# value in %; strip the unit string

# annotated cases, reported inhibition at 1 µM shown
Summary for this compound, Cc1ccn(-c2ccc(C(=O)N[C@@H]3CCC(F)(F)C[C@@H]3C(=O)N3CCc4c(-c5ccsc5)nc5ccccc5c43)cc2)n1 : inhibition at 1 µM is 100

Summary for this compound, Cc1ccn(-c2ccc(C(=O)N[C@@H]3CCC(F)(F)C[C@@H]3C(=O)N3CCc4c(-c5nccn5COC(=O)C(C)(C)C)nc5ccccc5c43)cc2)n1 : inhibition at 1 µM is 80.1

Summary for this compound, Cc1ccn(-c2ccc(C(=O)N[C@@H]3CCC(F)(F)C[C@@H]3C(=O)N3CCc4c(-c5ncc[nH]5)nc5ccccc5c43)cc2)n1.Cl [Example 12, hydrochloride] : inhibition at 1 µM is 101

Summary for this compound, Cc1ccn(-c2ccc(C(=O)N[C@@H]3CCC(F)(F)C[C@@H]3C(=O)N3CCc4c(-c5ncc[nH]5)nc5ccc(F)cc5c43)cc2)n1 [Example 6, hydrochloride] : inhibition at 1 µM is 99.4

Continue with the next compound.
Summary for this compound, Cc1ccn(-c2ccc(C(=O)N[C@@H]3CCC(F)(F)C[C@@H]3C(=O)N3CCc4c(-c5ccccc5)nc5ccc(F)cc5c43)cc2)n1 : inhibition at 1 µM is 101

###

tested.target: hNK3 receptor (Homo sapiens, UniProt P29371)
Construct: expressed in transfected cells; host or cells: CHO cells
Sequence (P29371 whole entry): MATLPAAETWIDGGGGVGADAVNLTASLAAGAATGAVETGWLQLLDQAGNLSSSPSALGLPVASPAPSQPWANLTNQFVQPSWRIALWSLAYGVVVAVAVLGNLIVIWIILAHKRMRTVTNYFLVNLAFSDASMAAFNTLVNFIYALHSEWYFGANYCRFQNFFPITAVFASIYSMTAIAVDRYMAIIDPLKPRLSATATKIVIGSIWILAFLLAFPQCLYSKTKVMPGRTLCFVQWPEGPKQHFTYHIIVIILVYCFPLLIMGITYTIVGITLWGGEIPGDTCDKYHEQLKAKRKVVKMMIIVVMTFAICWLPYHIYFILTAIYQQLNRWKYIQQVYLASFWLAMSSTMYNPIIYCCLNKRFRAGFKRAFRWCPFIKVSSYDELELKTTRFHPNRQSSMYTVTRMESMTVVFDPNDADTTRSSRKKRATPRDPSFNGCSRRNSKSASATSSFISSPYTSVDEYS
test.method.notes: Radioligand receptor binding inhibitory activity using membrane fraction of hNK3 receptor-expressing CHO cell ([125I]-NKB)
experimental.setup: test compound 10^−6 M; read-out: hNK3 receptor binding inhibitory activity (inhibitory rate (%))
observable: inhibition at 1 µM (%)
# value in %; strip the unit string

# annotated cases, reported inhibition at 1 µM shown
Assay hNK3 receptor (Homo sapiens, UniProt P29371), sample Cc1ccn(-c2ccc(C(=O)N[C@@H]3CCC(F)(F)C[C@@H]3C(=O)N3CCc4c(-c5ccccc5)nc5ccc(F)cc5c43)cc2)n1 , inhibition at 1 µM read: 27.7

Assay hNK3 receptor (Homo sapiens, UniProt P29371), sample Cc1ccn(-c2ccc(C(=O)N[C@@H]3CCC(F)(F)C[C@@H]3C(=O)N3CCc4c(-c5ncc[nH]5)nc5ccc(F)cc5c43)cc2)n1 , inhibition at 1 µM read: -8.1

Assay hNK3 receptor (Homo sapiens, UniProt P29371), sample Cc1ccn(-c2ccc(C(=O)N[C@@H]3CCC(F)(F)C[C@@H]3C(=O)N3CCc4c(-c5ccsc5)nc5ccccc5c43)cc2)n1 , inhibition at 1 µM read: 5.9

Continuing:
Assay hNK3 receptor (Homo sapiens, UniProt P29371), sample Cc1ccn(-c2ccc(C(=O)N[C@@H]3CCC(F)(F)C[C@@H]3C(=O)N3CCc4c(-c5nccn5COC(=O)C(C)(C)C)nc5ccccc5c43)cc2)n1 , inhibition at 1 µM read: -6.1

###

// inhibition at 0.01 µM lookup, one value per entry
tested.target: hNK2 receptor (Homo sapiens)
Construct: host or cells: CHO cells
test.method.notes: Antagonistic activity determined by intracellular calcium concentration using neurokinin A and hNK2 receptor-expressing CHO cell (FLIPR)
Format: cell-based
experimental.setup: CHO, test compound 10^−8 M; neurokinin A stimulation; read-out: Antagonistic activity (inhibitory rate (%))
# value in %; strip the unit string

Summary for this molecule, Cc1ccn(-c2ccc(C(=O)N[C@@H]3CCC(F)(F)C[C@@H]3C(=O)N3CCc4c(-c5ccccc5)nc5ccc(F)cc5c43)cc2)n1 [Example 9] : inhibition at 0.01 µM is 81.9

Summary for this molecule, Cc1ccn(-c2ccc(C(=O)N[C@@H]3CCC(F)(F)C[C@@H]3C(=O)N3CCc4c(-c5ncc[nH]5)nc5ccccc5c43)cc2)n1 [Example 1] : inhibition at 0.01 µM is 100

Summary for this molecule, Cc1ccn(-c2ccc(C(=O)N[C@@H]3CCC(F)(F)C[C@@H]3C(=O)N3CCc4c(-c5ccsc5)nc5ccccc5c43)cc2)n1 [Example 7] : inhibition at 0.01 µM is 98.6

Continuing:
Summary for this molecule, Cc1ccn(-c2ccc(C(=O)N[C@@H]3CCC(F)(F)C[C@@H]3C(=O)N3CCc4c(-c5nccn5COC(=O)C(C)(C)C)nc5ccccc5c43)cc2)n1 [Example 4] : inhibition at 0.01 µM is -6.8

Summary for this molecule, Cc1ccn(-c2ccc(C(=O)N[C@@H]3CCC(F)(F)C[C@@H]3C(=O)N3CCc4c(-c5ncc[nH]5)nc5ccc(F)cc5c43)cc2)n1 [Example 5] : inhibition at 0.01 µM is 100
